Record form. Attribute: Emax. Fill in for each entry.
- System Name: Free fatty acid receptor 1 (Homo sapiens)
- Sequence (O14842 whole entry): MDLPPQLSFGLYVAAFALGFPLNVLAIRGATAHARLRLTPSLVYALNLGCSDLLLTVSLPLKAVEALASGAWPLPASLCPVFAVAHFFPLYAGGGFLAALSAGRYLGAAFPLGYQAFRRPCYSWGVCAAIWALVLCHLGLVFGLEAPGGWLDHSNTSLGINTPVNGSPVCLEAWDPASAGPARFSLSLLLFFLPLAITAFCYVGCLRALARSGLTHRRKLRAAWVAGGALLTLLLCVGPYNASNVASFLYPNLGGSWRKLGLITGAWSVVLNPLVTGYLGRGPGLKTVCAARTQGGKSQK
- Experiment: Agonist activity at human recombinant full length GPR40 overexpressed in human HEK293 cells assessed as increase in inositol phosphate accumulation in presence of terbium cryptate-labeled anti IP1/d2-labelled IP1 measured after 120 mins by HTRF assay relative to AMG837
- Format: functional, cell-based
- Cond: filed as agonist
Quick reminder: number only, in %, skip the unit.

Quick check: Emax of CC#C[C@@H](CC(=O)O)c1ccc(OCc2nc(C)c(CN3CCC4(C=Cc5ccccc54)CC3)s2)cc1 ?
112

Quick check: Emax of CC#C[C@@H](CC(=O)O)c1ccc(OCc2ccc(CN3CCC4(CC3)CN(C)c3ccccc34)cc2)cc1 ?
268

Quick check: Emax of CC#C[C@@H](CC(=O)O)c1ccc(OCc2ccc(CN3CCC4(CC3)CN(C)c3c(Cl)cccc34)cc2)cc1 ?
378

Quick check: Emax of CC#C[C@H](CC(=O)O)c1ccc(OCc2ccc(CN3CCC4(C=Cc5ccccc54)CC3)cc2)cc1F ?
160

Quick check: Emax of CC#C[C@@H](CC(=O)O)c1ccc(OCc2ccc(CN3CCC4(C=Cc5ccccc54)CC3)c(F)c2)cc1 ?
210

Quick check: Emax of O=C(O)CCc1ccc(OCc2ccc(CN3CCC4(C=Cc5ccccc54)CC3)cc2)cc1Cl ?
265

Quick check: Emax of CC#C[C@@H](CC(=O)O)c1ccc(OCc2ccc(CN3CCC4(C=Cc5ccccc54)CC3)c(C(F)(F)F)c2)cc1 ?
255

Quick check: Emax of CC#C[C@@H](CC(=O)O)c1ccc(OCc2ccc(CN3CCC4(CC3)CN(c3ccccc3)c3ccccc34)cc2)cc1 ?
226

Quick check: Emax of CC#C[C@@H](CC(=O)O)c1ccc(OCc2ccc(CN3CCC4(C=Cc5ccccc54)CC3)cc2)cc1 ?
162

Quick check: Emax of CC#C[C@@H](CC(=O)O)c1ccc(OCc2cc(C)c(CN3CCC4(C=Cc5ccccc54)CC3)s2)cc1 ?
132

Quick check: Emax of CC#C[C@@H](CC(=O)O)c1ccc(OCc2ncc(CN3CCC4(C=Cc5ccccc54)CC3)s2)cc1 ?
129

Quick check: Emax of CC#C[C@@H](CC(=O)O)c1ccc(OCc2ccc(CN3CCC4(C=Cc5ccccc54)CC3)o2)cc1 ?
127

Quick check: Emax of CC#C[C@@H](CC(=O)O)c1ccc(OCc2sc(CN3CCC4(C=Cc5ccccc54)CC3)nc2C)cc1 ?
97

Quick check: Emax of CC#C[C@@H](CC(=O)O)c1ccc(OCc2ccc(CN3CCC4(CC3)CC(=O)c3ccccc3O4)cc2)cc1 ?
228
